- TARGET_ENTITY: EML4-ALK (L1196M)-BaF3 (Homo sapiens, UniProt Q9UM73, L1196M)
- Construct: expressed in transfected cells; host or cells: Ba/F3 cells; the other entry of the earlier key: EML4 (Q9HC35, Echinoderm microtubule-associated protein-like 4)
- EXPERIMENT_SUMMARY: Growth inhibition of EML4-ALK (L1196M) transformed BaF3 cells (MTS)
- Format: cell-based
- CONDITION_SET: 48 hours, Table 12, read-out: L1196M (IC50 nM)
Measured IC50 by item

• CCOc1cc(N2CCC(O)CC2)ccc1Nc1nc(Nc2ccccc2S(=O)(=O)C(C)C)c2c(ccn2C)n1 [IID-6] = ~3000 nM

Query block: Answer with the recorded IC50 of COc1cc(N2CCN(C)CC2)ccc1Nc1nc(Nc2ccccc2SC)c2c(ccn2C)n1 [IIA-1] only.
Result block: ~2560 nM

Query block: Please look at this compound and report its IC50: COc1cc(N2CCC(N3CCN(C)CC3)CC2)ccc1Nc1nc(NCc2ccccc2S(C)(=O)=O)c2c(ccn2C)n1 [IIK-2]
Result block: ~2950 nM

Query block: Let me know recorded IC50 for COC(=O)c1ccccc1Oc1nc(Nc2ccc(S(N)(=O)=O)cc2)nc2ccn(C)c12 [IIN-4] , thanks.
Result block: > 10000 nM

Query block: Given the compound Cn1ccc2nc(Nc3ccc(N4CCC(O)CC4)cc3)nc(NCc3ccccc3S(C)(=O)=O)c21 [IIK-3] , write its reported IC50.
Result block: > 10000 nM

Query block: Answer with the recorded IC50 of COc1cc(C(=O)N2CCC(N3CCN(C)CC3)CC2)ccc1Nc1nc(NCc2ccccc2S(C)(=O)=O)c2c(ccn2C)n1 [IIK-6] only.
Result block: > 10000 nM

Query block: Given CCOc1cc(C(=O)N2CCC(N3CCN(C)CC3)CC2)ccc1Nc1nc(Nc2ccccc2SC)c2c(ccn2C)n1 [IIA-5] , respond with its IC50.
Result block: ~883 nM

###

- TARGET_ENTITY: EML4-ALK-BaF3 (Homo sapiens, UniProt Q9UM73)
- Construct: expressed in transfected cells; host or cells: Ba/F3 cells; the other entry of the earlier key: EML4 (Q9HC35, Echinoderm microtubule-associated protein-like 4)
- Sequence (Q9UM73 1058-1620 limits assumed): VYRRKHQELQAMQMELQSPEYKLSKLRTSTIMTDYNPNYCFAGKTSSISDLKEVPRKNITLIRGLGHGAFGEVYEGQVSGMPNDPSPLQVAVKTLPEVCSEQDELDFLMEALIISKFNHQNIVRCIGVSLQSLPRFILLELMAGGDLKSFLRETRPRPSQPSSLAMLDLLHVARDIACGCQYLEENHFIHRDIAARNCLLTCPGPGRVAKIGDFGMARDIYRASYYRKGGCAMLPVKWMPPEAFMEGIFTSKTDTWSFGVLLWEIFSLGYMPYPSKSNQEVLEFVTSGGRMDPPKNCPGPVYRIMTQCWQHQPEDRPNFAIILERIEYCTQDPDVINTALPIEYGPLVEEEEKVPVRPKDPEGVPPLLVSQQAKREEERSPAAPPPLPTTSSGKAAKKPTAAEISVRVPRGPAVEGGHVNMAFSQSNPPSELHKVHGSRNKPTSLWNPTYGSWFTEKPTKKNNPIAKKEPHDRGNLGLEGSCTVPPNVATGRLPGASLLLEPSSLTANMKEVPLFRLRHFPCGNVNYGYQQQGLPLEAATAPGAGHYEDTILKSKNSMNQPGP
- EXPERIMENT_SUMMARY: Growth inhibition of EML4-ALK transformed BaF3 cells (MTS)
- Assay type: cell-based
- CONDITION_SET: EML4-ALK-BaF3 cells, 48 hours, MTS; Table 11
ENDPOINT: IC50 (nM)

# example entries with known answers
• CCOc1cc(N2CCC(O)CC2)ccc1Nc1nc(Nc2ccccc2C(=O)OC)c2[nH]ccc2n1 [IG-10] = 9800
• COC(=O)c1ccccc1Sc1nc(Nc2ccc(S(N)(=O)=O)cc2)nc2cc[nH]c12 [IU-4] = 9110
• COC(=O)c1ccccc1Nc1nc(Nc2ccc(N3CCOCC3)cc2OC)nc2cc[nH]c12 [IG-16] = 1370
• COC(=O)c1ccccc1Oc1nc(Nc2ccc(N3CCC(O)CC3)cc2)nc2cc[nH]c12 [IV-3] = 4550

1. CSc1ccccc1CNc1nc(Nc2ccc(N3CCC(O)CC3)cc2)nc2cc[nH]c12 [IL-3]
2. COC(=O)c1ccccc1Nc1nc(Nc2ccc(C(=O)N3CCC(N4CCN(C)CC4)CC3)cc2OC)nc2cc[nH]c12 [IG-12]
3. CC(C)S(=O)(=O)c1ccccc1Nc1nc(Nc2ccc(N3CCN(C)CC3)cc2)nc2cc[nH]c12 [ID-2]
Query block: Sort the 3 compounds by IC50; largest first, smallest last. # the answer lists labels in the order requested
Result block: 2, 1, 3
(2: 6500 nM, 1: 3500 nM, 3: 1170 nM)
